# Test system: PC-3 prostate
# method: NCI-60 one-dose screen, 48 h
# measurement_conditions: 10 µM unless noted
This is part of a sample that, as a whole, favours compounds with a hit. Of some 83,000 tested, about 20% had one in any assay. Active and inactive are the calls of the source. How the source made its calls: active means growth percent below 10; inactive means the rest.
Labels: t (active), f (inactive)

- compound: "CCOC(=O)C(=Cc1cccc(Cl)c1)C(=O)OCC"
  target_desc: "PC-3 prostate"
  category: "f"
- compound: "CN1CCN(c2ccc(C(=O)Nc3cccc(C#Cc4cccc5[nH]nc(N)c45)c3)cc2C(F)(F)F)CC1"
  target_desc: "PC-3 prostate"
  category: "t"
- compound: "CCc1ccc(Oc2cn[nH]c2-c2ccc(OCCc3ccc(F)cc3)cc2O)cc1"
  target_desc: "PC-3 prostate"
  category: "f"
- compound: "COc1ccc2c(c1)[n+]([O-])c(C(=O)/C=C/C=C(\\Cl)c1cc(OC)c(OC)c(OC)c1)c(C)[n+]2[O-]"
  target_desc: "PC-3 prostate"
  category: "f"
- compound: "CC1Cc2c(Cl)ncnc2N(C)c2ccc(F)cc21 (centres undefined)"
  target_desc: "PC-3 prostate"
  category: "f"
- compound: "COc1cc(N2C(=O)[C@H](O)C2c2ccc(SC)cc2)cc(OC)c1OC (some centres undefined)"
  target_desc: "PC-3 prostate"
  category: "f"
- compound: "COC(=O)[C@H]1CCCN1C[C@@H](O)CN1C(=O)/C(=C\\c2cc(OC)c(OC)c(OC)c2)c2ccccc21"
  target_desc: "PC-3 prostate"
  category: "f"
- compound: "CN(C)CCCn1c2c(c3ncccc3c1=O)C(=O)c1ccccc1-2"
  target_desc: "PC-3 prostate"
  category: "f"
- compound: "O=[N+]([O-])c1ccc(N/N=C(/C(=N/Nc2ccc([N+](=O)[O-])cc2)c2ccccc2)c2ccccc2)cc1"
  target_desc: "PC-3 prostate"
  category: "f"
- compound: "O=C(Nc1ccc(-c2nc(N3CCOCC3)c3cccn3n2)cc1)Nc1cccnc1"
  target_desc: "PC-3 prostate"
  category: "t"
- compound: "Nc1nc(=S)c2ncn(C3OC(COP(=O)(O)O)C(O)C3O)c2[nH]1 (centres undefined)"
  target_desc: "PC-3 prostate"
  category: "f"
- compound: "CN(C)CCNC(=O)c1cccc(-c2cnc3ccc(-c4ccc5c(c4)OCO5)nn23)c1"
  target_desc: "PC-3 prostate"
  category: "f"
- compound: "CCOC(=O)C1=C(NC)OCC1=O"
  target_desc: "PC-3 prostate"
  category: "f"
- compound: "CCOC(=O)C(=Cc1cccc(Br)c1)C(=O)OCC"
  target_desc: "PC-3 prostate"
  category: "f"
- compound: "COc1ccc2c(O)c(/C=C3\\N=Nc4ccccc43)oc2c1C[C@@H]1CCNC[C@H]1F"
  target_desc: "PC-3 prostate"
  category: "f"
- compound: "COc1cc(C(=O)n2nc(N3CCN(C)CC3)c3cc(N)ccc32)cc(OC)c1OC"
  target_desc: "PC-3 prostate"
  category: "f"
- compound: "COc1cc(/C=C\\c2cc(/C=C\\c3ccc(O)c(OC)c3)n(C(=O)COc3ccc(Cl)cc3Cl)n2)ccc1O"
  target_desc: "PC-3 prostate"
  category: "f"
- compound: "C=CCn1c(SCC(=O)Nc2ccc(C(=O)/C=C/c3ccc(Cl)cc3)cc2)nnc1-c1cc(-c2ccc(S(N)(=O)=O)cc2)nc2ccccc12"
  target_desc: "PC-3 prostate"
  category: "f"
- compound: "N#Cc1c(-c2ccccc2)cc(-c2ccccc2)n(CCCCCC(=O)Nc2ccccc2N)c1=O"
  target_desc: "PC-3 prostate"
  category: "f"

---

# System: MOLT-4 leukemia
# method: NCI-60 one-dose screen, 48 h (100 = growth as untreated, 0 = no growth, -100 = all killed)
# measurement_conditions: 10 µM unless noted
About 83,000 compounds went through this panel and 20% of them were active in at least one assay; those are over-represented in the sample as a whole. The source made the active and inactive calls. The calls were made as follows: active = growth percent below 10; inactive = the rest.

- compound: "CC(C)(C)[Si](C)(C)O[C@H]1C(=O)C=CN2CC=C[C@@H]12"
  growth: "118% [100 µM] (inactive)"
- compound: "Cc1cnc(C(=O)NNc2nc3sc4c(c3c(=O)n2C)C(C)CCC4)cn1 (stereo not given)"
  growth: "3.79% (active)"
- compound: "N#C/C(=C/c1ccc([N+](=O)[O-])cc1)n1nnc2cc(F)c(F)cc21"
  growth: "38.6% (inactive)"
- compound: "Cc1ccc(NC(=S)NNC(=S)NNc2ccccc2)cc1C"
  growth: "45% (inactive)"
- compound: "O=C(Cn1c2c(c3ccccc31)CCCC2)Nc1ccc(-c2nc3ccccc3s2)cc1"
  growth: "98.8% (inactive)"
- compound: "CCCCCCNC(=O)Oc1ccc(/C(=C(/C)Cc2ccc(OC)cc2)c2ccc(OCCCN(C)C)cc2)cc1"
  growth: "-12.3% (active)"
- compound: "COc1cc(CNS(=O)(=O)c2ccc(C)cc2)ccc1OCc1cn(-c2ccc(F)cc2)nn1"
  growth: "78.2% (inactive)"
- compound: "Cc1nnc(-n2c(O)cc(=O)n(-c3ccccc3)c2=S)nc1/C=C/c1ccc(N(C)C)cc1"
  growth: "56.1% (inactive)"
- compound: "O=C1/C(=C/c2ccccc2Br)COc2ccc(O)c(O)c21"
  growth: "2.79% (active)"
- compound: "CCOC(=O)C1=NN(c2ccccc2)C(=O)/C1=C\\N1C(=O)CC(=O)NC1=S"
  growth: "99% (inactive)"
- compound: "C#CCOc1cccc(Nc2ncnc3ccc(NC(=O)CCl)cc23)c1"
  growth: "-25.1% (active)"
- compound: "COCCn1c(-c2csc(-c3cn(C)c4ccc(OC)cc34)n2)cc2cccnc21"
  growth: "54.4% (inactive)"
- compound: "CCCCC[C@@H]1Cc2cc(O)c(C(=O)O)c3c2[C@H](C[C@]2(OC[C@@H](CC(=O)[C@@](C)(CC)C(=O)OC)[C@@H]2C)O3)O1"
  growth: "90.2% (inactive)"
- compound: "COc1cc(-c2cc(-c3cccs3)c(C#N)c(N3CCOCC3)n2)cc(OC)c1OC"
  growth: "28.3% (inactive)"
- compound: "COc1cccc(NC(=O)Cn2cc(CN3CCN(c4ccnc5cc(Cl)ccc45)CC3)nn2)c1"
  growth: "50% (inactive)"
- compound: "O=C(CSc1nc2sc3c(c2c(=O)n1-c1ccccc1)CCCCC3)N/N=C/c1ccc(F)cc1"
  growth: "67.1% (inactive)"
- compound: "Cc1cccc(Cl)c1NC(=O)c1ccc2nc(NC(=O)NCCN(C)C)sc2c1"
  growth: "80.2% (inactive)"
- compound: "Cc1ccc(Sc2oc(-c3ccc(C)cc3)nc2[P+](c2ccccc2)(c2ccccc2)c2ccccc2)cc1"
  growth: "-25.9% (active)"
- compound: "CCN(CC)CCNC(=O)c1cn2ncnc(Oc3ccc(NC(=O)Nc4ccc(Cl)c(C(F)(F)F)c4)c(F)c3)c2c1C"
  growth: "-20.8% (active)"
- compound: "N#Cc1nn(-c2cc(=O)[nH]c3ccc(Cl)cc23)c(N)c1C#N"
  growth: "-3.91% (active)"
- compound: "CNC(=O)c1c(NC(=O)c2ccc(C(F)(F)F)cc2)sc2c1CCC(=O)C2"
  growth: "2.28% (active)"
- compound: "O=C(Nc1ccc(-c2nc(N3CCOCC3)c3cccn3n2)cc1)Nc1cccnc1"
  growth: "5.84% (active)"
- compound: "O=C(O)[C@@H]1c2ccccc2-c2ccccc2[C@H]1C(=O)O"
  growth: "107% (inactive)"
- compound: "COc1ccc(/C=C2\\COc3ccc(O)c(O)c3C2=O)cc1"
  growth: "3.83% (active)"
- compound: "O=C1COCCN1c1ccc(Nc2nc(Cl)nc(OCc3cn(Cc4ccccc4)nn3)n2)cc1"
  growth: "62% (inactive)"
- compound: "Cc1nc2sc(C(=O)Nc3cccc(Cl)c3C)c(N)c2cc1C(=O)c1ccccc1"
  growth: "16.4% (inactive)"
- compound: "COC(=O)/C=C1/SC(=Nc2ccc(C)cc2)N(CCc2c[nH]c3ccc(O)cc23)C1=O"
  growth: "-8.16% (active)"
- compound: "CCN1C(=O)N(CC)C2C1NN=c1s/c(=C\\c3ccc(Cl)cc3Cl)c(=O)n12 (stereo not given)"
  growth: "12.9% (inactive)"
- compound: "N#Cc1c(N)nnn1Cc1cc(=O)oc2c1ccc1ccccc12"
  growth: "89% (inactive)"
- compound: "O=C1NCCC12CCN(c1c(Cl)cncc1-c1ccc(O)cc1)CC2"
  growth: "102% (inactive)"
- compound: "COc1ccc(C(=O)Nc2cccc(C3CC(=O)c4c(cc(OC)c(OC)c4OC)O3)c2)cc1 (stereo not given)"
  growth: "14.3% (inactive)"
- compound: "CCN1CCN(c2cc(C(=O)Nc3nc(-c4cc(OC)c(OC)c(OC)c4)cs3)cc(C(F)(F)F)c2)CC1"
  growth: "43.9% (inactive)"
- compound: "O=[N+]([O-])C1C(c2ccccc2)C12c1ccccc1-c1ccccc12 (stereo not given)"
  growth: "-17.1% (active)"
- compound: "C1=C(N2CCCC2)CCC1"
  growth: "96.6% (inactive)"
- compound: "CC1=C(C(=O)OC(C)C)C(c2ccc3c(c2)OCO3)NC(=S)N1 (stereo not given)"
  growth: "110% (inactive)"
- compound: "O=C(NNC(=O)c1ccc(-n2cc(-c3ccccc3)nn2)cc1)Nc1ccccc1"
  growth: "107% (inactive)"
- compound: "Cc1nc2sc(C(=O)Nc3ccccc3)c(N)c2cc1C(=O)c1ccccc1"
  growth: "31.6% (inactive)"
- compound: "O=C1C(Cl)=C(Nc2ccc(O)cc2)C(=O)N1Cc1ccc(Cl)cc1"
  growth: "16.9% (inactive)"
- compound: "Cn1cc(-c2nc(-c3c[nH]c4ccncc34)cs2)c2ccccc21"
  growth: "35.7% (inactive)"
- compound: "CC(C)c1ccc(NC(=O)Nc2ccc(NC(=O)CCCC(=O)NOCc3ccccc3)cc2)cc1"
  growth: "71.1% (inactive)"
